Target: FAAH (Mus musculus)
Assay: In vitro competitive activity-based protein profiling (Table 2, % inhibition at 1 μM)
Assay type: biochemical
Settings: read-out: % Inhibition at 1 μM FAAH
Attribute: inhibition at 1 µM

Worked cases, inhibition at 1 µM given:
| compound | meas.value |
| --- | --- |
| CC(C)c1ccc(CN2CC3CN(C(=O)OC(C(F)(F)F)C(F)(F)F)CC3C2)c(N2CCOCC2)c1 (centres unmarked) [Example 22] | < 25% |
| O=C(OC(C(F)(F)F)C(F)(F)F)N1CC2CN(Cc3c(N4CC5COCC5C4)cccc3C(F)(F)F)CC2C1 (centres unmarked) [Example 209] | < 25% |
| Cc1cccc(CN2CC3CN(C(=O)ON4C(=O)CCC4=O)CC3C2)c1N1CCCCC1 (centres unmarked) [Example 105] | < 25% |
| CCn1cc(CN2CC3CN(C(=O)OC(C(F)(F)F)C(F)(F)F)CC3C2)c(-c2cccnc2)n1 (centres unmarked) [Example 71] | < 25% |
| CC(=O)N1CCN(c2ccc(CN3CC4CN(C(=O)ON5C(=O)CCC5=O)CC4C3)c(F)c2)CC1 (centres unmarked) [Example 101] | < 25% |

Q) Value lookup for inhibition at 1 µM; key = CC(C)c1cc(CN2CC3CN(C(=O)OC(C(F)(F)F)C(F)(F)F)CC3C2)n(C2CCOCC2)n1 (centres unmarked) [Example 62]
A) < 25%

Q) Value lookup for inhibition at 1 µM; key = Cc1c(CN2CC3CN(C(=O)OC(C(F)(F)F)C(F)(F)F)CC3C2)cccc1C(=O)N1CCCCC1 (centres unmarked) [Example 187]
A) < 25%

Q) Value lookup for inhibition at 1 µM; key = O=C(OC(C(F)(F)F)C(F)(F)F)N1CC2CN(Cc3ccc(Cl)cc3N3CCC3)CC2C1 (centres unmarked) [Example 39]
A) 25 to 75%

* * *

Target: MAGL (Mus musculus, UniProt O35678)
Sequence (O35678 whole entry): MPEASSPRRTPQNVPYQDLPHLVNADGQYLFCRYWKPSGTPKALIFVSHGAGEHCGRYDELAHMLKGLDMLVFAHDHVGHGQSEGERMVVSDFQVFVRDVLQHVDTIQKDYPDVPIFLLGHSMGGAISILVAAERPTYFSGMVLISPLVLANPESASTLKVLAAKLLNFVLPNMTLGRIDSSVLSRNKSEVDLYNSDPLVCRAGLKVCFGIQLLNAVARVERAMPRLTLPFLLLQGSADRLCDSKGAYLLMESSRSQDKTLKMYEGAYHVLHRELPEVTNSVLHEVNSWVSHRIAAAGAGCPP
Assay: biochemical
Details: mouse; in vitro competitive ABPP; read-out: Mouse (IC50 value, nM) MAGL
assay.endpoint: IC50

Worked cases, IC50 given:
| molecule | tested.system | assay.endpoint | meas.value |
| --- | --- | --- | --- |
| Cn1nc(-c2ccccc2)cc1CN1CC2CN(C(=O)OC(C(F)(F)F)C(F)(F)F)CC2C1 (centres unmarked) | MAGL (Mus musculus, UniProt O35678) | IC50 | < 100 nM |
| Cn1cc(CN2CC3CN(C(=O)ON4C(=O)CCC4=O)CC3C2)c(-c2ccccc2)n1 (centres unmarked) | MAGL (Mus musculus, UniProt O35678) | IC50 | 100 to 1000 nM |
| CC(=O)N1CCC(n2nc(C)cc2CN2CC3CN(C(=O)OC(C(F)(F)F)C(F)(F)F)CC3C2)CC1 (centres unmarked) | MAGL (Mus musculus, UniProt O35678) | IC50 | 100 to 1000 nM |

Let us move to another entry and its IC50.
Q) Request body: readout IC50, system MAGL (Mus musculus, UniProt O35678), query Cc1c(CN2CC3CN(C(=O)ON4C(=O)CCC4=O)CC3C2)cccc1N1CCCCC1 (centres unmarked) . Return the value.
A) < 100 nM

* * *

Attribute: inhibition at 1 µM
Target: FAAH (Mus musculus, UniProt O08914)
Test: In vitro competitive activity-based protein profiling (Table 2, % inhibition at 1 μM)
Format: biochemical
Details: read-out: % Inhibition at 1 μM FAAH

Worked cases, inhibition at 1 µM given:
| compound | inhibition at 1 µM |
| --- | --- |
| O=C(ON1C(=O)CCC1=O)N1CC2CN(Cc3ccc(-c4ccccc4)cc3)CC2C1 (centres unmarked) | > 75% |
| CS(=O)(=O)N1CCN(c2cc(Cl)ccc2CN2CC3CN(C(=O)OC(C(F)(F)F)C(F)(F)F)CC3C2)CC1 (centres unmarked) | < 25% |
| O=C(ON1C(=O)CCC1=O)N1CC2CN(Cc3ccc(Cl)cc3N3CC4CCC(C3)O4)CC2C1 (centres unmarked) | < 25% |
| CCN1CCN(c2cccc(CN3CC4CN(C(=O)OC(C(F)(F)F)C(F)(F)F)CC4C3)c2C)CC1 (centres unmarked) | 25 to 75% |
| Cc1c(CN2CC3CN(C(=O)OC(C(F)(F)F)C(F)(F)F)CC3C2)cccc1N1CCN(S(C)(=O)=O)CC1 (centres unmarked) | 25 to 75% |

Q) Value lookup for inhibition at 1 µM; key = O=C(OC(C(F)(F)F)C(F)(F)F)N1CC2CN(Cc3ccc(C(F)F)cc3N3CCCC3)CC2C1 (centres unmarked)
A) < 25%

Q) Value lookup for inhibition at 1 µM; key = Cc1c(CN2CC3CN(C(=O)OC(C(F)(F)F)C(F)(F)F)CC3C2)cccc1N1CCN(C)CC1 (centres unmarked)
A) < 25%

Q) Value lookup for inhibition at 1 µM; key = CC(=O)N1CCN(c2cc(F)ccc2CN2CC3CN(C(=O)ON4C(=O)CCC4=O)CC3C2)CC1 (centres unmarked)
A) < 25%

Q) Value lookup for inhibition at 1 µM; key = C#CCNC(=O)c1nn(CC)cc1CN1CC2CN(C(=O)OC(C(F)(F)F)C(F)(F)F)CC2C1 (centres unmarked)
A) < 25%

Q) Value lookup for inhibition at 1 µM; key = CCN1CCN(c2c(C)cccc2CN2CC3CN(C(=O)ON4C(=O)CCC4=O)CC3C2)CC1 (centres unmarked)
A) < 25%

Q) Value lookup for inhibition at 1 µM; key = O=C(OC(C(F)(F)F)C(F)(F)F)N1CC2CN(Cc3ccc(F)cc3N3CCOCC3)CC2C1 (centres unmarked)
A) 25 to 75%

Q) Value lookup for inhibition at 1 µM; key = O=C(ON1C(=O)CCC1=O)N1CC2CN(Cc3ccc(Cl)cc3N3CCn4ncnc4C3)CC2C1 (centres unmarked)
A) < 25%

Q) Value lookup for inhibition at 1 µM; key = CC(=O)N1CCC(n2nc(C)cc2CN2CC3CN(C(=O)OC(C(F)(F)F)C(F)(F)F)CC3C2)CC1 (centres unmarked)
A) < 25%

* * *

Attribute: inhibition at 1 µM
Molecular target: UniProtKB O35678
Experiment: In vitro competitive activity-based protein profiling (Table 2, % inhibition at 1 μM)
Type: biochemical
Conditions: read-out: % Inhibition at 1 μM MAGL

| compound | inhibition at 1 µM |
| --- | --- |
| Cc1c(CN2CC3CN(C(=O)OC(C(F)(F)F)C(F)(F)F)CC3C2)cccc1C(=O)N1CCCCC1 (stereo not shown) [Example 187] | > 75% |
| CCN1CCN(c2cccc(CN3CC4CN(C(=O)ON5C(=O)CCC5=O)CC4C3)c2C)CC1 (stereo not shown) [Example 146] | 25 to 75% |

Q) Value lookup for inhibition at 1 µM; key = CCN1CCN(c2c(C)cccc2CN2CC3CN(C(=O)ON4C(=O)CCC4=O)CC3C2)CC1 (stereo not shown) [Example 139]
A) < 25%

Q) Value lookup for inhibition at 1 µM; key = O=C(ON1C(=O)CCC1=O)N1CC2CN(Cc3ccc(Cl)cc3N3CCC(C(=O)N4CCCC4)CC3)CC2C1 (stereo not shown) [Example 111]
A) 25 to 75%

* * *

Target: FAAH (Mus musculus, UniProt O08914)
Sequence (O08914 1-579): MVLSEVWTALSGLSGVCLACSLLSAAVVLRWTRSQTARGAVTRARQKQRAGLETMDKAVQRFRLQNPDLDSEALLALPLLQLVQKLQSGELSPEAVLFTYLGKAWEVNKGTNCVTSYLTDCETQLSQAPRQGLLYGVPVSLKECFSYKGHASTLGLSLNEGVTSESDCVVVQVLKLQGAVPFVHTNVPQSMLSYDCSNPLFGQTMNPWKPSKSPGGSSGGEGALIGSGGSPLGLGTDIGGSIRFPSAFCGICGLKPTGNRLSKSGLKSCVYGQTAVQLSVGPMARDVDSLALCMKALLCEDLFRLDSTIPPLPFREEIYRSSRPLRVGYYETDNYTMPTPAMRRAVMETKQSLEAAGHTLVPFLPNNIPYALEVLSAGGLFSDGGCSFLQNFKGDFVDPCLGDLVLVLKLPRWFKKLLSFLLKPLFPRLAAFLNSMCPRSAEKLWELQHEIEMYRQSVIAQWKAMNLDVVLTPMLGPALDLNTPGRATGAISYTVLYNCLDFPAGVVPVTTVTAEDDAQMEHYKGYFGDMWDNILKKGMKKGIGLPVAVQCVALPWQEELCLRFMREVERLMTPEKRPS
Assay: In vitro competitive activity-based protein profiling (Table 2, % inhibition at 1 μM)
Type: biochemical
Settings: read-out: % Inhibition at 1 μM FAAH
Attribute: inhibition at 1 µM

Q) Value lookup for inhibition at 1 µM; key = O=C(ON1C(=O)CCC1=O)N1CC2CN(Cc3ccc(N4CCOCC4)cc3Cl)CC2C1 (stereo not drawn)
A) 25 to 75%

Q) Value lookup for inhibition at 1 µM; key = O=C(ON1C(=O)CCC1=O)N1CC2CN(Cc3ccc(Cl)cc3N3CCOCC3)CC2C1 (stereo not drawn)
A) < 25%
